endpoint-name: melting point

O=C(O)C1=Cc2ccc(Cl)cc2SC1C(F)(F)F (stereo not shown): 225.7 to 227.3 °C
O=C(O)C1=Cc2cc(Oc3ccccc3)ccc2OC1C(F)(F)F (stereo not shown): 184.9 to 186.4 °C
CC(C)(CO)c1ccc2c(c1)OC(C(F)(F)F)C(C(=O)O)=C2 (stereo not shown): 228.9 to 230 °C
CNS(=O)(=O)c1ccc2c(c1)C=C(C(=O)O)C(C(F)(F)F)O2 (stereo not shown): 207.6 to 208.6 °C
O=C(O)C1=Cc2cc(Cl)c(Cl)cc2SC1C(F)(F)F (stereo not shown): 262.5 to 263.5 °C

Entry under test: CC(C)(C)NS(=O)(=O)c1ccc2c(c1)C=C(C(=O)O)C(C(F)(F)F)O2 (stereo not shown) . Its melting point was 229.3 to 233.5 °C

Entry under test: O=C(O)C1=Cc2cc(Cl)c(OCC(F)(F)F)cc2OC1C(F)(F)F (stereo not shown) . Its melting point was 174.4 to 176 °C

Entry under test: O=C(O)C1=Cc2cc(-c3ccc(Br)cc3)ccc2OC1C(F)(F)F (stereo not shown) . Its melting point was 215 to 216 °C

Entry under test: CC(C)(C)c1cc2c(cc1Br)C=C(C(=O)O)C(C(F)(F)F)O2 (stereo not shown) . Its melting point was 198.6 to 199.9 °C

Entry under test: Cc1ncc(CO)c2c1OC(C(F)(F)F)C(C(=O)O)=C2 (stereo not shown) . Its melting point was 76.1 to 80.1 °C

Entry under test: O=C(O)C1=Cc2cc(Cl)cc(Cl)c2SC1C(F)(F)F (stereo not shown) . Its melting point was 217.9 to 220.3 °C

Entry under test: O=C(O)C1=Cc2cc(Cl)cc(CO)c2OC1C(F)(F)F (stereo not shown) . Its melting point was 174.6 to 178.9 °C

----------
Target: UniProt P35354
Assay: Assay for COX-2 activity (PGE2 ELISA)
Conditions: read-out: COX-2 IC50; 10–20 minutes pre-incubation, reaction stopped after ten minutes, pH 8.0
endpoint-name: IC50

O=C(O)C1=Cc2cc(S(=O)(=O)NCc3ccccc3)cc(Cl)c2OC1C(F)(F)F (stereo not drawn): 21 µM
O=C(O)C1=Cc2cc(Cl)c(Oc3ccccn3)cc2OC1C(F)(F)F (stereo not drawn): < 0.1 µM
O=C(O)C1=Cc2cc(S(=O)(=O)N3CCOCC3)ccc2OC1C(F)(F)F (stereo not drawn): 6 µM

Entry under test: O=C(O)C1=Cc2cc(Cl)c(Cl)c(Cl)c2OC1C(F)(F)F (stereo not drawn) . Its IC50 was < 0.1 µM

Entry under test: O=C(O)C1=Cc2cc(Cl)c(Oc3ccc(Cl)cc3Cl)cc2OC1C(F)(F)F (stereo not drawn) . Its IC50 was < 0.1 µM

Entry under test: O=C(O)C1=Cc2c(cc(Cl)c(Cl)c2Cl)OC1C(F)(F)F (stereo not drawn) . Its IC50 was < 0.1 µM

----------
endpoint-name: melting point

Known melting point results, listed for orientation:
O=C(O)C1=Cc2cc(Cl)c(Oc3ccc(F)c(F)c3)cc2OC1C(F)(F)F (stereo not shown): 191.9 to 193.1 °C
O=C(O)C1=Cc2cc(-c3ccc(F)cc3)ccc2OC1C(F)(F)F (stereo not shown): 207 to 210 °C
O=C(O)C1=Cc2cc(C(=O)c3ccc(Cl)cc3)ccc2OC1C(F)(F)F (stereo not shown): 268.3 to 269.4 °C

Entry under test: O=C(O)C1=Cc2cc(C(=O)Cc3ccccc3)ccc2OC1C(F)(F)F (stereo not shown) . Its melting point was 159 to 164 °C

Entry under test: CSc1ccc(-c2cc(Cl)cc3c2OC(C(F)(F)F)C(C(=O)O)=C3)cc1 (stereo not shown) . Its melting point was 211.4 to 212.5 °C

Entry under test: NS(=O)(=O)c1ccc2c(c1)C=C(C(=O)O)C(C(F)(F)F)O2 (stereo not shown) . Its melting point was 187.9 to 189.8 °C

Entry under test: O=C(O)C1=Cc2cc(Cl)cc(-c3ccccc3)c2OC1C(F)(F)F (stereo not shown) . Its melting point was 196.3 to 197.7 °C

Entry under test: CC(C)(C)c1cc2c(c(C(C)(C)C)c1)OC(C(F)(F)F)C(C(=O)O)=C2 (stereo not shown) . Its melting point was 171.6 to 175 °C

Entry under test: Cc1cc(C)c2c(c1)C=C(C(=O)O)C(C(F)(F)F)S2 (stereo not shown) . Its melting point was 220 to 225 °C (dec.)

Entry under test: O=C(O)C1=Cc2cc(F)c(F)cc2NC1C(F)(F)F (stereo not shown) . Its melting point was 186.6 to 188.9 °C

Entry under test: O=C(O)C1=Cc2cc(S(=O)(=O)NCc3ccccc3)ccc2OC1C(F)(F)F (stereo not shown) . Its melting point was 223.3 to 224.4 °C

Entry under test: O=C(O)C1=Cc2cc(Cl)cc(F)c2OC1C(F)(F)F (stereo not shown) . Its melting point was 190.8 to 193 °C

----------
Biological target: UniProt:P35354
Assay: Fast assay for COX-2 activity (PGE2 ELISA)
Assay type: biochemical, human or murine
Settings: fast assay: 10 min pre-incubation at 25° C., reaction stopped after two minutes, pH 7.5
pIC50: −log10 of the molar value.
endpoint-name: pIC50

O=C(O)C1=Cc2cc(S(=O)(=O)NCc3ccccc3)ccc2OC1C(F)(F)F (stereo not shown) [Example 49]: 4.62
O=C(O)C1=Cc2cc(Cl)c(Oc3cccc(Cl)n3)cc2OC1C(F)(F)F (stereo not shown) [Example 199]: > 7.00
O=C(O)C1=Cc2cc(Cl)c(Oc3ccc(Cl)cc3Cl)cc2OC1C(F)(F)F (stereo not shown) [Example 197]: > 7.00

Continue with the molecule presented below.
Entry under test: O=C(O)C1=Cc2cc(Cl)c(Oc3cccc(Cl)c3)cc2OC1C(F)(F)F (stereo not shown) [Example 196] . Its pIC50 was > 7.00

----------
Molecular target: COX-2 (UniProt P35354)
Test: Fast assay for COX-2 activity (PGE2 ELISA)
Format: biochemical, human or murine
Details: fast assay: 10 min pre-incubation at 25° C., reaction stopped after two minutes, pH 7.5
endpoint-name: log10 IC50 (log10 of the value in µM)
Hi team, quick reminder: these entries are log10 of IC50 (µM).

Entry under test: O=C(O)C1=Cc2cc(Cl)c(Cl)cc2SC1C(F)(F)F (stereo not drawn) . Its log10 IC50 was -0.30

Entry under test: O=C(O)C1=Cc2cc(S(=O)(=O)NCc3ccccc3)cc(Cl)c2OC1C(F)(F)F (stereo not drawn) . Its log10 IC50 was 1.32

----------
# reported pIC50; entries follow
Target: COX-2 (UniProt P35354)
Sequence (P35354 1-604): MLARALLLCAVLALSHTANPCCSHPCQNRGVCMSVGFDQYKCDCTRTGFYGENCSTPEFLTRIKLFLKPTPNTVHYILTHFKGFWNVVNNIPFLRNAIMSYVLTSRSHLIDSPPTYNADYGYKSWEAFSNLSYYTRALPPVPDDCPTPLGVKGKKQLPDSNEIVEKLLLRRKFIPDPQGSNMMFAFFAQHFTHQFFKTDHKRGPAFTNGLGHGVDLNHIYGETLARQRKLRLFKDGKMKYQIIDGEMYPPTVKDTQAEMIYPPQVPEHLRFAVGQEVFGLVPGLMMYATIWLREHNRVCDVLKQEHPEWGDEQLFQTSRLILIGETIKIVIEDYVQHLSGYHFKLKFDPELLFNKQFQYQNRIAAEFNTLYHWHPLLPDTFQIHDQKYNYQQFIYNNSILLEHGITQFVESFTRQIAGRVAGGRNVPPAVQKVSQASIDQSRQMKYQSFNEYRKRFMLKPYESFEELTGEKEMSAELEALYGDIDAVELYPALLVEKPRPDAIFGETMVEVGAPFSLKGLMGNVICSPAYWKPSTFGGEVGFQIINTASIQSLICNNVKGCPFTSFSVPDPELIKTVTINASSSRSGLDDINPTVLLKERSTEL
Experiment: Fast assay for COX-2 activity (PGE2 ELISA)
Assay type: biochemical, human or murine
Details: fast assay: 10 min pre-incubation at 25° C., reaction stopped after two minutes, pH 7.5
Formally, pIC50 is defined as -log10 of the concentration c, with c in mol/L.

Cc1cc(Br)c2c(c1)C=C(C(=O)O)C(C(F)(F)F)O2 (centres unmarked): 6.52
CC(C)CNS(=O)(=O)c1ccc2c(c1)C=C(C(=O)O)C(C(F)(F)F)O2 (centres unmarked): 4.34

Continue with the compound presented below.
For the compound O=C(O)C1=Cc2c(ccc3oc4ccccc4c23)OC1C(F)(F)F (centres unmarked) , the measured pIC50 on COX-2 (UniProt P35354) was 6.70

----------
Biological target: COX-2 (UniProt P35354)
Assay: Fast assay for COX-2 activity (PGE2 ELISA)
Format: biochemical, human or murine
Settings: fast assay: 10 min pre-incubation at 25° C., reaction stopped after two minutes, pH 7.5
# reported IC50; entries follow
Give the number; nM is assumed, so skip it.

Known IC50 results, listed for orientation:
O=C(O)C1=Cc2c(Cl)cc(Cl)cc2OC1C(F)(F)F (stereo not shown): 12000
O=C(O)C1=Cc2cc(-c3ccc(Br)cc3)ccc2OC1C(F)(F)F (stereo not shown): 300
CCc1cc2c(cc1Cl)C=C(C(=O)O)C(C(F)(F)F)O2 (stereo not shown): 67000
CC(C)c1cc(Cl)cc2c1OC(C(F)(F)F)C(C(=O)O)=C2 (stereo not shown): 36000
C#Cc1ccc2c(c1)C=C(C(=O)O)C(C(F)(F)F)N2 (stereo not shown): 1700

Entry under test: O=C(O)C1=Cc2cc(Oc3ccc(C(F)(F)F)cc3)cc(Cl)c2OC1C(F)(F)F (stereo not shown) . Its IC50 was 300

Entry under test: O=C(O)C1=Cc2cc(Cl)ccc2OC1C(F)(F)F (stereo not shown) . Its IC50 was 300

Entry under test: O=C(O)C1=Cc2cc(Cl)c(Oc3ccc(OC(F)(F)F)cc3)cc2OC1C(F)(F)F (stereo not shown) . Its IC50 was 2900
